- test: xn = mol fraction of the nth substance listed, in the solute-free solvent
- test conditions: 313.15 K; x2 = 0.8
quantity name: solubility (g/100 g solution)
Give only the figure.

Before answering, review these 8 worked examples.
CCCCOc1ccc(C(=O)CCN2CCCCC2)cc1.Cl + CCO + CCOC(C)=O | 44.2
O=C1CCc2ccc(OCCCCN3CCN(c4cccc(Cl)c4Cl)CC3)cc2N1 + CCC(C)=O + CCOC(C)=O | 3.87
COC1=CC(=O)CC(C)C12Oc1c(Cl)c(OC)cc(OC)c1C2=O (stereo not drawn) + CC(C)=O + CC(C)O | 4.19
O=C(O)C1CSCN1 (stereo not drawn) + O + CC#N | 2.04
CC(=O)OC(c1ccccc1)C(Cl)(Cl)Cl (stereo not drawn) + CCO + O | 9.55
CC(=O)OC(c1ccccc1)C(Cl)(Cl)Cl (stereo not drawn) + CC(=O)O + O | 15.1
O=C(O)c1ccc(C(=O)O)o1 + C1COCCO1 + O | 2.75
O=C1CCc2ccc(OCCCCN3CCN(c4cccc(Cl)c4Cl)CC3)cc2N1 + CCC(C)=O + CCCO | 5.83

In: Recorded solubility (g/100 g solution) for O=C(O)c1ccc(C(=O)O)o1 + O + COCCOC , please?
Out: 5.09

In: Recorded solubility (g/100 g solution) for CCCCOc1ccc(C(=O)CCN2CCCCC2)cc1.Cl + CCO + O , please?
Out: 53.9

In: Recorded solubility (g/100 g solution) for CCCCOc1ccc(C(=O)CCN2CCCCC2)cc1.Cl + CCO + CCCCCC , please?
Out: 43

In: Recorded solubility (g/100 g solution) for CCCCOc1ccc(C(=O)CCN2CCCCC2)cc1.Cl + CO + C1CCOC1 , please?
Out: 59

In: Recorded solubility (g/100 g solution) for COC1=CC(=O)CC(C)C12Oc1c(Cl)c(OC)cc(OC)c1C2=O (stereo not drawn) + CC(=O)CC(C)C + CC(C)O , please?
Out: 1.39

In: Recorded solubility (g/100 g solution) for O=C(O)c1ccc(C(=O)O)o1 + C1CCOC1 + O , please?
Out: 6.26

In: Recorded solubility (g/100 g solution) for O=C1CCc2ccc(OCCCCN3CCN(c4cccc(Cl)c4Cl)CC3)cc2N1 + CCC(C)=O + CC(C)=O , please?
Out: 4.3

In: Recorded solubility (g/100 g solution) for O=C(O)c1ccc(C(=O)O)o1 + O + COCCOCCOC , please?
Out: 6.02

In: Recorded solubility (g/100 g solution) for COC1=CC(=O)CC(C)C12Oc1c(Cl)c(OC)cc(OC)c1C2=O (stereo not drawn) + CCC(C)=O + CC(C)O , please?
Out: 3.29

In: Recorded solubility (g/100 g solution) for CC(=O)OC(c1ccccc1)C(Cl)(Cl)Cl (stereo not drawn) + CC(C)O + O , please?
Out: 10.4

====

- test: xn = mol fraction of the nth substance listed, in the solute-free solvent
- test conditions: 318.15 K; x2 = 0.7
# cutoff 10 applies to solubility (g/100 g solution); >= gives YES, < gives NO

COC1=CC(=O)CC(C)C12Oc1c(Cl)c(OC)cc(OC)c1C2=O (stereo not given) + CC(=O)CC(C)C + CC(C)O | NO
O=C(O)c1ccc(C(=O)O)o1 + C1COCCO1 + O | NO

In: API: above_or_equal(metric=solubility (g/100 g solution), cutoff=10) for item COC1=CC(=O)CC(C)C12Oc1c(Cl)c(OC)cc(OC)c1C2=O (stereo not given) + CCC(C)=O + CC(C)O
Out: NO

In: API: above_or_equal(metric=solubility (g/100 g solution), cutoff=10) for item COC1=CC(=O)CC(C)C12Oc1c(Cl)c(OC)cc(OC)c1C2=O (stereo not given) + CC(C)=O + CC(C)O
Out: NO

In: API: above_or_equal(metric=solubility (g/100 g solution), cutoff=10) for item CCCCOc1ccc(C(=O)CCN2CCCCC2)cc1.Cl + CCO + CCCCCC
Out: YES

In: API: above_or_equal(metric=solubility (g/100 g solution), cutoff=10) for item O=C(O)c1ccc(C(=O)O)o1 + O + COCCOCCOC
Out: NO
